target: human GLP-1R (Homo sapiens, UniProt P43220, G168S); test: CHO GLP-1R Clone H6—Assay 1: HTRF cAMP cell-based functional agonist assay (high GLP-1R density); conditions: read-out: Assay 1 Emax (%), CHO GLP-1R Clone H6; relative to saturating concentration of full agonist GLP-1 (1 μM); arithmetic mean
Sequence (P43220 24-463 G168S limits assumed): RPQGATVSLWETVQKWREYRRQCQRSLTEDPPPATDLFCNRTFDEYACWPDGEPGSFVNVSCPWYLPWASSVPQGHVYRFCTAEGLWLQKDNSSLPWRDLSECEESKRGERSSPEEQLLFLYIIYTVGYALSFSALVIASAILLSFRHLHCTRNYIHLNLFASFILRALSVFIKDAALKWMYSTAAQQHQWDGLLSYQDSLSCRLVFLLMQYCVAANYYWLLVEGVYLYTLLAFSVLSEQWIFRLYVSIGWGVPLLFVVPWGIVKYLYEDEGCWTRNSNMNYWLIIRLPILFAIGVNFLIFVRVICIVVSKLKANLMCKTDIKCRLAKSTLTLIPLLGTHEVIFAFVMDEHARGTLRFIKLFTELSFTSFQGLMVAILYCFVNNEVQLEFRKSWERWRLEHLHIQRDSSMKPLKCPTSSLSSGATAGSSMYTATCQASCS
Entries whose Emax is below 70% take true (1); entries at or above 70% take false (0).

Solved cases (5 shown):
COCCn1c(CN2CCN(c3cccc(OCc4ccc(C#N)cc4)n3)CC2)nc2ccc(C(=O)O)cc21 [Example 1A-11] | false (0)
Cc1cc(C)n(CCn2c(CN3CCC(c4cccc(OCc5ccc(Cl)cc5F)n4)CC3)nc3ccc(C(=O)O)cc32)n1 [Example 11A-57] | true (1)
Cc1nc2nc(CN3CCC(c4cccc(OCc5ccc(Cl)cc5F)n4)CC3)n(C)c2cc1C(=O)O [Example 2A-12] | false (0)
Cn1cncc1Cn1c(CN2CCC(c3cccc(OCc4ccc(F)cc4F)n3)CC2)nc2ccc(C(=O)O)cc21 [Example 1A-17] | false (0)
Cn1nncc1Cn1c(CN2CCC(c3cccc(OCc4ccc(Cl)cc4F)n3)CC2)nc2ccc(C(=O)O)cc21 [Example 11A-72] | false (0)

[ask] Below 70% on Emax? Entry COCCn1c(CN2CCN(c3cccc(OCc4ccc(Cl)cc4F)n3)C[C@H]2C)nc2ccc(C(=O)O)cc21 [Example 12A-11]
[reply] false (0)
